Biological target: T1, recombinant human CD4 (catalogue number: 514-CD/CF, manufactured by R&D Systems) (human, UniProt P01730 26-390)
T1 construct: Bought protein (R&D Systems); also called recombinant CD4
Test: SPR, Biacore T100; antibody captured on anti-mouse IgG chip, recombinant human CD4 flowed; 1:1 binding model
assayReadout: koff (s⁻¹)
Reply with just the number (in s⁻¹).

Please review the following examples before continuing.
anti-CD4 rat monoclonal antibody KM4066 (antibody, V domains shown, Rat hybridoma IgG with a kappa light chain) VH: EVQLEESGGGLVQPGRSLKLSCLASGFTFSNYGMNWIRQAPGKGLEWVASISGSSTYIYYADTVKGRFTISRENAENTLYLQMTSLRSEDTALYYCAREGSSTDRYYEVSFAYWGQGTLVTVSS VL: DVVLTQTPVSLSVTLGDQASISCRSSQSLEYSDGYTYLEWYLQKPGQSPQVLIYGVSNRFSGVPDRFIGSGSGTDFTLKISRVEPEDLGVYYCFQATHDPYTFGAGTRLELK; 0.000118
anti-CD4 rat monoclonal antibody KM4067 (antibody, V domains shown, Rat hybridoma IgG with a kappa light chain) VH: QVKLLQSGAALVKPGASVKMSCKASGYTFTDYWVHWVKQSHGKSLEWIGEIYPNNNTTNFNEKFKGKATLTVDKFTSTAYMELSRLTSEDSAIYYCTRGTVYYGLGYFDHWGQGVMVTVSS VL: DIRMTQSPASLSASLGETVNIECLASEDVYSDLAWYQQKPGKSPQLLIYNANNLQSGVPSRFSGSGSGTRYSLKINSLQSEDVATYFCQQYNNYPPYTFGAGTKLELK; 0.000473
anti-CD4 rat monoclonal antibody KM4068 (antibody, V domains shown, Rat hybridoma IgG with a kappa light chain) VH: QVQLKESGPGLVQPSQTLSLTCTVSGLSLTSNSVSWIRQPPGKGLEWMGIIWSNGDTDYNSAIKSRLSISRDTSKSQVFLKMNSLQTEDTAMYFCANPYYGYNFPFDYWGQGVMVTVSS VL: DIQMTQSPASLSASLEEIVTITCKASQGIDNYLSWYQQKPGKSPQLLIYDATSLADGVPSRFSGSRSGTQYSLKISRPQVDDSGIYYCLQSYSTPFTFGSGTKLEIK; 0.00204

Query: Give its koff value. Item: anti-CD4 rat monoclonal antibody KM4065 (antibody, V domains shown, Rat hybridoma IgG with a kappa light chain) VH: EVQLVESGGGLVQPGRSMKLSCAASGFTFSNYGMAWVRQAPTKGLEWVATISYDGSITYYRDSVKGRFTISRDHAKSTLYLQMNSLRSEDTATYYCTREEQYSSWYFDFWGPGIMVTVSS VL: DIVLTQSPALAVSLGQRATISCRASQSVSISSHDLMQWYQQKPGQQPKLLIYDAFNLASGIPVRFSGSGSGTDFTLTIDPVQADDIATYYCQQSKDDPYTFGAGTKLELK
Result: 1.52e-06
